B1: Hairpin Ribozyme (parent)
chain: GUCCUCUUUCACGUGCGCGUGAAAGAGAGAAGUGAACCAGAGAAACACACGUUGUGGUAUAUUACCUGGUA

variants of: B1; assay: self-cleavage, relative activity (ratio to wild type); higher = more cleavage; co-transcriptional
measurement-type: self-cleavage

{"sequence-chain": "GUCCUCUUUCACGUGCGCGUGAAAGAGAGAAGUGUACCAGAGAAACAAACGUUGUGGUAUAUUACCUGGUA [A35U C48A]", "self-cleavage": 0.186}
{"sequence-chain": "AUCCUCUUUCACGUGCGCGUGAAAGAGAGAAGUGAACCAGAGUAACACACGUUGUGGUAUAUUACCUGGUA [G1A A43U]", "self-cleavage": 0.0738}

Query string: Supply recorded self-cleavage for GUCCUCUUUCACGUGCGCGUGAAAGAGAGAAGUGAACCUGAGAAACACAGGUUGUGGUAUAUUACCUGGUA [A39U C50G] here.
Result string: 0.0689

Query string: Supply recorded self-cleavage for GUCCUCUUUCACGUGCGCGUGAAAGAGAGAAGUGAACCAGAGAGAUACACGUUGUGGUAUAUUACCUGGUA [A44G C46U] here.
Result string: 0.139

Query string: Supply recorded self-cleavage for GUCCUCUUUCACGUGCGCGAAAAAGAGAGAAGUGAACCAGAGAAACACACGUUGUGGUAUAUUACCUGGUA [U20A G21A] here.
Result string: 0.79

Query string: Supply recorded self-cleavage for GUCCUCUUUCACGUGCGCGUGAAAGAGAGAAGUGAACCAGAGAAAAACAUGUUGUGGUAUAUUACCUGGUA [C46A C50U] here.
Result string: 0.111

Query string: Supply recorded self-cleavage for GUCUUCUUUCACGUGCGCGUGAUAGAGAGAAGUGAACCAGAGAAACACACGUUGUGGUAUAUUACCUGGUA [C4U A23U] here.
Result string: 0.315

Query string: Supply recorded self-cleavage for GUCCUCUUUCACGUGCGCGUGAAAGAGAGAAGUGAACCAGAGUAACGCACGUUGUGGUAUAUUACCUGGUA [A43U A47G] here.
Result string: 0.121

Query string: Supply recorded self-cleavage for CUCCUCUUUCACGUGCGCGUGAAAGAGAGAAGUGAAACAGAGAAACACACGUUGUGGUAUAUUACCUGGUA [G1C C37A] here.
Result string: 0.0534

Query string: Supply recorded self-cleavage for GUCCUCUUUCACGUGCGCGUGAUAGAGAGAAAUGAACCAGAGAAACACACGUUGUGGUAUAUUACCUGGUA [A23U G32A] here.
Result string: 0.147

Query string: Supply recorded self-cleavage for GUCCUCUUUCACGGGCGCGUGAAAGAGAGAAGUGAACCAGAGAAACACACGUUGUGGUAUAUUAGCUGGUA [U14G C65G] here.
Result string: 0.213

Query string: Supply recorded self-cleavage for GUCCUCUUACACGUGCGCGUGAAAGGGAGAAGUGAACCAGAGAAACACACGUUGUGGUAUAUUACCUGGUA [U9A A26G] here.
Result string: 0.825

Query string: Supply recorded self-cleavage for GUCCUGUUUCACGUGCUCGUGAAAGAGAGAAGUGAACCAGAGAAACACACGUUGUGGUAUAUUACCUGGUA [C6G G17U] here.
Result string: 0.369

Query string: Supply recorded self-cleavage for GUCCUCGUUCACGUGCGCGUGACAGAGAGAAGUGAACCAGAGAAACACACGUUGUGGUAUAUUACCUGGUA [U7G A23C] here.
Result string: 0.624

Query string: Supply recorded self-cleavage for GUCCUCUUUCACGUGCGCGUGAAAGAGAGAAGGGAACCAGAGAAACAAACGUUGUGGUAUAUUACCUGGUA [U33G C48A] here.
Result string: 0.158

Query string: Supply recorded self-cleavage for GUCCUCUUUCACGUGCGCGUGAAAGAGAGAAGUGAACCAGAGAAACAUACGUUGUGGUAUAUUACCUGGCA [C48U U70C] here.
Result string: 0.0914

Query string: Supply recorded self-cleavage for GUCCUCUUUCACCUGCGCGUGAAAGAGAGAAGUGAACCAGAGAAACACACGUUGUGGUAAAUUACCUGGUA [G13C U60A] here.
Result string: 0.579

Query string: Supply recorded self-cleavage for GUCCUCUUUCACGUGCCCGUGAAACAGAGAAGUGAACCAGAGAAACACACGUUGUGGUAUAUUACCUGGUA [G17C G25C] here.
Result string: 0.3

Query string: Supply recorded self-cleavage for GUCCUCUUUCACGUGCGCGUGUAAGAGAGAAGUGAACCAGAGAAACACACGUUGUGGUAUAUUACCUAGUA [A22U G68A] here.
Result string: 0.389

Query string: Supply recorded self-cleavage for GUCCUCUUUCACGUGCGCGUGAAAGAGAGAAAUGAACCAGAGUAACACACGUUGUGGUAUAUUACCUGGUA [G32A A43U] here.
Result string: 0.0753

Query string: Supply recorded self-cleavage for GUCCUCUUUCACGUGCGCGUGAAAGAGAGAUGUGAACCAGAGAAACACACGUUGUGGUAUAUUACCGGGUA [A31U U67G] here.
Result string: 0.0559

Query string: Supply recorded self-cleavage for GUCCUCUUUCACGUGCGCGUGAAAGAGAGAAGUGAACCAGAGUAACACACGUCGUGGUAUAUUACCUGGUA [A43U U53C] here.
Result string: 0.111

Query string: Supply recorded self-cleavage for GUCCUCUGUCACGUGCGCGUGAAAGAGAGAAGUGAACCAGAGAAACACACGUUGUGGUAUAUUCCCUGGUA [U8G A64C] here.
Result string: 0.0997
